Biological target: human CTLA-4 (human)
Sequence (chain, as listed by the source): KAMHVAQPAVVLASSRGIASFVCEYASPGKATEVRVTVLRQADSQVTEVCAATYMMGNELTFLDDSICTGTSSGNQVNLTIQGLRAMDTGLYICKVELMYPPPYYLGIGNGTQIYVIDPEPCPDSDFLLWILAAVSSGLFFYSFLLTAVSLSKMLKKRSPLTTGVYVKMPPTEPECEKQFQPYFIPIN
Test: flow cytometry, CHO/CTLA-4 cells, 100 nM, anti-Flag
ASSAY METRIC: MFI

MFI reported for this binder PD-L2 1417-CD80 2616 (other) LFTVTVPKELYIIEQGSNVTLECNFDTGSHVNLGAITASLQKVENDASPHRERATLLEEQLPLGRALFHIPQVQVRDEGQYRCIIIYGDAWDYKYLTLKVKAGSGGSGGGGSGGGGSVIHVTKEVKEVATLSCGHNVSLEELAQTRIYWQKGKKMVLTMMSGDMNIWPEYKNRTIFDITNNLSIVILDPRPSDEGTYECVVLKYEKDAFKREHLAEVDYKDDDDKHHHHHH : 79.3

All values here come from patent US20250163127A1.
